Target: β-catenin (Homo sapiens, UniProt P35222)
Sequence (P35222 whole entry): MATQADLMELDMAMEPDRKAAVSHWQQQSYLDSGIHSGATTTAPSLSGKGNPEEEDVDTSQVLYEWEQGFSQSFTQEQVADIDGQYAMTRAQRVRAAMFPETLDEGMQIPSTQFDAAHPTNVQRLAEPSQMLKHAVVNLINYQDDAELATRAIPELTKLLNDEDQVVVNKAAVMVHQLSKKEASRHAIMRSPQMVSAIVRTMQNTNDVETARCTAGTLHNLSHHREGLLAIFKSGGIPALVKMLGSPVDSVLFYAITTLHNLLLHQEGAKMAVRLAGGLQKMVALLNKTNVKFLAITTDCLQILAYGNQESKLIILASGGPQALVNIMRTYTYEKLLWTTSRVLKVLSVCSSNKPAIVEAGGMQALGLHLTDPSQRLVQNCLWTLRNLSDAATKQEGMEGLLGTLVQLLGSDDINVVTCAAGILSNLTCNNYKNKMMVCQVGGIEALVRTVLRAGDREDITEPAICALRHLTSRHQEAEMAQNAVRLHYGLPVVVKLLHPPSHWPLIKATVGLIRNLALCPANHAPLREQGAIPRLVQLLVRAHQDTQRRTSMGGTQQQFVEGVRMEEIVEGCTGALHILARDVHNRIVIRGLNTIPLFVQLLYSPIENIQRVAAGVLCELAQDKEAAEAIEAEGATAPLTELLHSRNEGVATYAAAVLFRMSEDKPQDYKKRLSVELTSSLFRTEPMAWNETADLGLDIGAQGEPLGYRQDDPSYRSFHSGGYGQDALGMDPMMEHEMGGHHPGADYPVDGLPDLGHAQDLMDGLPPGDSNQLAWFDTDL
Assay: KD50 measurement using competitive fluorescence polarization (FP) with labelled TCF4
Format: binding
Conditions: fluorescence polarization, β-catenin; read-out: β-Cat FP KD
pKd: −log10 of the molar value. Where a SMILES comes first, the peptide text is derived from it.
Observed Property: pKd

- CC[C@H](C)[C@H](NC(=O)[C@H](CC(C)C)NC(=O)[C@H](Cc1ccccc1)NC(=O)[C@H](Cc1c[nH]c2ccccc12)NC(=O)[C@H](CCCNC(=N)N)NC(=O)[C@H](CCCNC(=N)N)NC(=O)[C@H](CO)NC(=O)[C@@H](N)CCSC)C(=O)N[C@@H](CO)C(=O)N[C@@H](Cc1ccccc1)C(=O)N[C@@H](Cc1c[nH]c2ccccc12)C(N)=O [compound 75] (H-MSRRWFLISFW-NH2): < 4.52
- CC[C@H](C)[C@H](NC(=O)[C@H](CC(C)C)NC(=O)[C@@H](NC(=O)[C@H](Cc1c[nH]c2ccccc12)NC(=O)[C@@H](N)CCSC)[C@@H](C)CC)C(=O)N[C@@H](CO)C(=O)N[C@@H](CO)C(=O)N[C@@H](Cc1c[nH]c2ccccc12)C(=O)NCC(=O)O [compound 129] (H-MWILISSWG-OH): 6.00 to 6.40
- CC[C@H](C)[C@H](NC(=O)[C@H](CC(C)C)NC(=O)[C@H](Cc1ccccc1)NC(=O)[C@@H](N)Cc1c[nH]c2ccccc12)C(=O)N[C@@H](CO)C(=O)N[C@@H](Cc1ccc(O)cc1)C(=O)N[C@@H](Cc1c[nH]c2ccccc12)C(=O)O [compound 109] (H-WFLISYW-OH): 5.00 to 6.00
- CC[C@H](C)[C@H](NC(=O)[C@H](CC(C)C)NC(=O)[C@H](Cc1ccccc1)NC(=O)[C@H](Cc1c[nH]c2ccccc12)NC(=O)[C@H](CCSC)NC(=O)[C@H](CCCNC(=N)N)NC(=O)[C@H](CCC(N)=O)NC(=O)[C@@H](N)CCSC)C(=O)N[C@@H](CO)C(=O)N[C@@H](Cc1ccccc1)C(=O)N[C@@H](Cc1c[nH]c2ccccc12)C(N)=O [compound 74] (H-MQRMWFLISFW-NH2): < 4.52
- CC[C@H](C)[C@H](NC(=O)[C@H](CC(C)C)NC(=O)[C@H](Cc1ccccc1)NC(=O)[C@H](Cc1c[nH]c2ccccc12)NC(=O)[C@H](CCSC)NC(=O)[C@H](CCCNC(=N)N)NC(=O)[C@H](CO)NC(=O)[C@@H](N)CCSC)C(=O)N[C@@H](CO)C(=O)N[C@@H](Cc1ccccc1)C(=O)N[C@@H](Cc1c[nH]c2ccccc12)C(=O)NCC(=O)O [compound 41] (H-MSRMWFLISFWG-OH): < 4.52
- CC[C@H](C)[C@H](NC(=O)[C@H](CC(C)C)NC(=O)[C@@H](NC(=O)[C@H](Cc1c[nH]c2ccccc12)NC(=O)[C@@H](N)Cc1c[nH]c2ccccc12)[C@@H](C)CC)C(=O)N[C@@H](CO)C(=O)N[C@@H](Cc1ccccc1)C(=O)N[C@@H](Cc1c[nH]c2ccccc12)C(=O)NCC(=O)O [compound 127] (H-WWILISFWG-OH): 6.00 to 6.40
- CC[C@H](C)[C@H](NC(=O)[C@H](CC(C)C)NC(=O)[C@H](Cc1ccccc1)NC(=O)[C@H](Cc1c[nH]c2ccccc12)NC(=O)[C@@H](N)CCSC)C(=O)N[C@@H](C)C(=O)N[C@@H](Cc1ccccc1)C(=O)N[C@@H](Cc1c[nH]c2ccccc12)C(=O)NCC(=O)O [compound 159] (H-MWFLIAFWG-OH): < 4.52
- CC[C@H](C)[C@H](NC(=O)[C@H](CC(C)C)NC(=O)[C@@H](NC(=O)[C@H](Cc1c[nH]c2ccccc12)NC(=O)[C@@H](N)CCSC)[C@@H](C)CC)C(=O)N[C@@H](CO)C(=O)N[C@@H](Cc1ccc(O)cc1)C(=O)N[C@@H](Cc1c[nH]c2ccccc12)C(=O)NCC(=O)O [compound 152] (H-MWILISYWG-OH): < 4.52
- CC[C@H](C)[C@H]1NC(=O)[C@H](CC(C)C)NC(=O)[C@@H](Cc2ccccc2)NC(=O)[C@H](Cc2c[nH]c3ccccc23)NC(=O)[C@@H](CCSC)NC(=O)CCCCCCCCCCCNC(=O)C[C@@H](C(=O)O)NC(=O)[C@H](Cc2c[nH]c3ccccc23)NC(=O)[C@@H](C)NC(=O)[C@@H](CS)NC1=O [compound 193] (HELM PEPTIDE1{[O=C(CCCCCCCCCCCN[*:1])[*:2]].[dM].W.[dF].L.[CC[C@H](C)[C@@H](N[*:1])C(=O)[*:2]].[dC].[dA].W.D}$PEPTIDE1,PEPTIDE1,1:R1-10:R3$$$V2.0): 6.00 to 6.40
- CC[C@H](C)[C@@H]1NC(=O)[C@H](CC(C)C)NC(=O)[C@H](Cc2ccccc2)NC(=O)[C@H](Cc2c[nH]c3ccccc23)NC(=O)[C@@H](N)CCCCNC(=O)CC[C@@H](C(=O)O)NC(=O)[C@H](Cc2c[nH]c3ccccc23)NC(=O)[C@H](C)NC(=O)[C@H](CO)NC1=O [compound 183] (HELM PEPTIDE1{K.W.F.L.I.S.A.W.E}$PEPTIDE1,PEPTIDE1,1:R3-9:R3$$$V2.0): 5.00 to 6.00
- CC[C@H](C)[C@H](NC(=O)[C@H](CC(C)C)NC(=O)[C@H](Cc1ccccc1)NC(=O)[C@H](Cc1c[nH]c2ccccc12)NC(=O)[C@@H](N)CC(=O)O)C(=O)N[C@@H](CS)C(=O)N[C@@H](Cc1ccccc1)C(=O)N[C@@H](Cc1c[nH]c2ccccc12)C(=O)NCC(=O)O [compound 142] (H-DWFLICFWG-OH): > 6.40

Reference source for all entries: patent US12441768B2
